Test system: S. cerevisiae Mot1-301 ts growth rescue, BacTiter-Glo ATP luminescence
test.protocol: restored Mot1-301 yeast growth at 38.5C – whole organism, S. cerevisiae, Mot1-301 ts mutant, luminescence, dose retest, SUMOylation pathway inhibitor project, confirmation (AID 463204);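 note: growth at restrictive 38.5 degrees C of Mot1-301 OY566 strain; actives raise luminescence by restoring growth of the ts mutant at high temperature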
Active and inactive are the calls of the source.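 Rule for the calls: active = AC50 no more than ten times the top concentration tested, that is within one log above it; inconclusive = flat curve fit with activity between 30% and 70%, or invalid poor fit; inactive = AC50 beyond ten times the top tested dose.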
Respond with a class label; see y for active, n for inactive

compound=NS(=O)(=O)c1ccc(CCNC(=O)c2ccc([N+](=O)[O-])s2)cc1 class_assignment=n
compound=COc1ccc(-c2cn(-c3ccc(C)cc3)c(=O)n2CC(=O)Nc2ccc(OC)c(OC)c2)cc1 class_assignment=n
compound=C[C@@]12C(=O)Nc3cc(Cl)ccc3C(=O)N1[C@H]1c3ccccc3OC[C@@H]1[C@@H]2c1ccccc1 class_assignment=y
compound=CCn1nc(C(=O)OCc2cccc(S(=O)(=O)N(C)C)c2)c2ccccc2c1=O class_assignment=n
compound=CCCCC(=O)Nc1cc(OC)c(NC(=O)C2CCCCC2)cc1OC class_assignment=n
compound=CC1CCN(S(=O)(=O)c2ccc(NC(=O)c3cccs3)cc2)CC1 class_assignment=n

Incoming: What call does the record list for `Cc1cccc2nc3ccccc3cc12` ?
Outgoing: n

Incoming: What call does the record list for `Cc1cc(/C=C2\C(=O)NC(=O)N(c3ccccc3F)C2=O)c(C)n1-c1cc(C(=O)O)cc(C(=O)O)c1` ?
Outgoing: n

Incoming: What call does the record list for `NC(=O)C1=C[C@@H](c2ccc(Br)cc2)C[C@@H](OCCCCO)O1` ?
Outgoing: n

Incoming: What call does the record list for `O=C(C1CCN(S(=O)(=O)N2CCC3(CC2)OCCO3)CC1)N1CCC(Cc2ccccc2)CC1` ?
Outgoing: n

Incoming: What call does the record list for `O=S(=O)(Nc1ccc(-c2nc3cccnc3s2)cc1)c1cc(F)ccc1F` ?
Outgoing: n

Incoming: What call does the record list for CN(C(=O)COC(=O)c1cc(-c2ccc(Cl)s2)nc2ccccc12)C1CCS(=O)(=O)C1 (stereo unspecified) ?
Outgoing: n

Incoming: What call does the record list for `CN(C)S(=O)(=O)c1cccc(NC(=O)C(c2ccccc2)c2ccccc2)c1` ?
Outgoing: n

Incoming: What call does the record list for CC1(C)CC(=O)C(CC2CCCCC2=O)C(=O)C1 (stereo unspecified) ?
Outgoing: n

Incoming: What call does the record list for CCOP(=O)(OCC)C(NC(=O)c1cccc([N+](=O)[O-])c1)C(Cl)(Cl)Cl (stereo unspecified) ?
Outgoing: n

Incoming: What call does the record list for `CCOC(=O)COc1nc(-c2ccc(C)cc2)cc(-c2ccco2)c1C#N` ?
Outgoing: n

Incoming: What call does the record list for `O=C1c2ccccc2C(=O)N1CCSc1ccccc1` ?
Outgoing: n

Incoming: What call does the record list for `Cc1occc1-c1nnc(SCC(=O)N2CCN(c3ccccc3)CC2)n1C` ?
Outgoing: n

Incoming: What call does the record list for CCc1ccc(NC(=S)N(Cc2cccc(Br)c2)CC2CCC(C(=O)O)CC2)cc1 (stereo unspecified) ?
Outgoing: n

Incoming: What call does the record list for `O=C(NCc1nc(-c2ccccc2)no1)c1cccs1` ?
Outgoing: n

Incoming: What call does the record list for `COc1ccc(C(=O)N/C(=C\c2cc(OC)c(OC)cc2[N+](=O)[O-])C(=O)NCCO)cc1` ?
Outgoing: n

###

Tested on: S. cerevisiae Mot1-301 ts growth rescue, BacTiter-Glo ATP luminescence
test.protocol: restored Mot1-301 yeast growth at 38.5C – whole organism, S. cerevisiae, Mot1-301 ts mutant, luminescence, dose retest, SUMOylation pathway inhibitor project, confirmation (AID 463204);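 note: growth at restrictive 38.5 degrees C of Mot1-301 OY566 strain; actives raise luminescence by restoring growth of the ts mutant at high temperature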
Active and inactive are the calls of the source.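 Rule for the calls: active = AC50 no more than ten times the top concentration tested, that is within one log above it; inconclusive = flat curve fit with activity between 30% and 70%, or invalid poor fit; inactive = AC50 beyond ten times the top tested dose.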
Respond with a class label; see label 1 (active), label 0 (inactive)

Example entries begin here.
compound="CCC1CCCCN1C(=O)CSc1nc2c([nH]c3ccccc32)c(=O)n1C (stereo not drawn)" class_assignment="label 0"
compound=O=C(COc1ccccc1)Nc1cccc(-c2nnc(-c3ccccc3)o2)c1 class_assignment="label 0"
compound=CCCCOc1ccc(C(=O)Nc2ccc(N3CCN(C)CC3)cc2)cc1 class_assignment="label 0"
compound=CCn1ncc(Br)c1C(=O)Nc1ccc(OC(F)(F)F)cc1 class_assignment="label 0"
compound=O=[N+]([O-])c1cncc([N+](=O)[O-])c1Nc1ccccc1Cl class_assignment="label 1"

Incoming: What call does the record list for Clc1ccc(CN(Cc2ccccc2)C(c2cccs2)c2nnnn2C2CCCC2)cc1 (stereo not drawn) ?
Outgoing: label 0

Incoming: What call does the record list for O=C(OC1CCOC1=O)c1cccc(S(=O)(=O)Nc2ccc(F)cc2)c1 (stereo not drawn) ?
Outgoing: label 0

Incoming: What call does the record list for `CN(C)c1ccc(NC(=O)CSc2nc(N)c(C(=O)Nc3ccc(N(C)C)cc3)s2)cc1` ?
Outgoing: label 0

Incoming: What call does the record list for `N#CCC(=O)N/N=C/c1ccc(OS(=O)(=O)c2ccccc2)cc1` ?
Outgoing: label 0

Incoming: What call does the record list for `Cc1nc(CCNC(=O)c2ccccc2)cs1` ?
Outgoing: label 0

Incoming: What call does the record list for `O=C(CSc1nnc(-c2ccccc2Cl)o1)Oc1ccc(Br)cc1` ?
Outgoing: label 0

Incoming: What call does the record list for `CC(C)C/C(=N/O)c1c[nH]c2ccccc12` ?
Outgoing: label 0

Incoming: What call does the record list for `COc1ccc(C2=Nn3c(nnc3-c3ccco3)SC2)cc1` ?
Outgoing: label 0

Incoming: What call does the record list for `COc1cccc(/C=C2/C(=O)NN(c3ccc(Br)cc3)C2=O)c1O` ?
Outgoing: label 0

Incoming: What call does the record list for `O=C(CCc1ccccc1)N1CCN(c2ccccc2F)CC1` ?
Outgoing: label 0

Incoming: What call does the record list for `C/C(=N/Nc1ccc(F)cc1)c1ccc(Cl)s1` ?
Outgoing: label 0

###

Test system: S. cerevisiae Mot1-301 ts growth rescue, BacTiter-Glo ATP luminescence
test.protocol: restored Mot1-301 yeast growth at 38.5C – whole organism, S. cerevisiae, Mot1-301 ts mutant, luminescence, dose retest, SUMOylation pathway inhibitor project, confirmation (AID 463204);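 note: growth at restrictive 38.5 degrees C of Mot1-301 OY566 strain; actives raise luminescence by restoring growth of the ts mutant at high temperature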
The source made the active and inactive calls.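 How the source made its calls: active means AC50 no more than ten times the top concentration tested, that is within one log above it; inconclusive means flat curve fit with activity between 30% and 70%, or invalid poor fit; inactive means AC50 beyond ten times the top tested dose.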
Respond with a class label; see 1 for active, 0 for inactive

Incoming: What call does the record list for `S=C(NCCc1ccccc1)Nc1ccccc1Cl` ?
Outgoing: 0

Incoming: What call does the record list for `CCc1nnc(NC(=O)CSc2nc3c(cc2C#N)CCCC3)s1` ?
Outgoing: 0

Incoming: What call does the record list for `COc1ccc([N+](=O)[O-])c2c(=O)ccoc12` ?
Outgoing: 0

Incoming: What call does the record list for `CN(C)C(=O)CCN1CCOCC1` ?
Outgoing: 0

Incoming: What call does the record list for `COc1cc(NC(=O)CN2CCN(CC(=O)Nc3ccccc3OC)CC2)cc(OC)c1` ?
Outgoing: 0

###

Test system: S. cerevisiae Mot1-301 ts growth rescue, BacTiter-Glo ATP luminescence
test.protocol: restored Mot1-301 yeast growth at 38.5C – whole organism, S. cerevisiae, Mot1-301 ts mutant, luminescence, dose retest, SUMOylation pathway inhibitor project, confirmation (AID 463204);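 note: growth at restrictive 38.5 degrees C of Mot1-301 OY566 strain; actives raise luminescence by restoring growth of the ts mutant at high temperature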
Calls of active or inactive are those of the source.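 Rule for the calls: active = AC50 no more than ten times the top concentration tested, that is within one log above it; inconclusive = flat curve fit with activity between 30% and 70%, or invalid poor fit; inactive = AC50 beyond ten times the top tested dose.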
measurement.kind: AC50

molecule=Cc1ccc(C(=O)/C=C/c2ccc(-c3ccccc3[N+](=O)[O-])o2)cc1 system_tested="S. cerevisiae Mot1-301 ts growth rescue, BacTiter-Glo ATP luminescence" meas_value="> 42 µM (inactive)"
molecule=CC(=O)c1c(Nc2cccc(F)c2)oc(C)cc1=O system_tested="S. cerevisiae Mot1-301 ts growth rescue, BacTiter-Glo ATP luminescence" meas_value="> 42 µM (inactive)"
molecule="CSCCC(NC(=O)c1ccco1)C(=O)N1CCN(Cc2ccccc2)CC1 (configuration not stated)" system_tested="S. cerevisiae Mot1-301 ts growth rescue, BacTiter-Glo ATP luminescence" meas_value="> 42 µM (inactive)"
molecule="CC1=C(C#N)S(=O)(=O)C(C#N)C(c2ccccc2)C1 (configuration not stated)" system_tested="S. cerevisiae Mot1-301 ts growth rescue, BacTiter-Glo ATP luminescence" meas_value="> 42 µM (inactive)"
molecule=CCOc1ccc(-c2nc3n(c(=O)c2C#N)CCS3)cc1 system_tested="S. cerevisiae Mot1-301 ts growth rescue, BacTiter-Glo ATP luminescence" meas_value="> 42 µM (inactive)"
molecule=Cc1ccc(NC(=O)N[C@H](C(=O)O)C(C)C)c(C)c1 system_tested="S. cerevisiae Mot1-301 ts growth rescue, BacTiter-Glo ATP luminescence" meas_value="> 42 µM (inactive)"
molecule=Cc1ccc(-c2nn(-c3ccccc3)cc2C(=O)N2CCN(c3ccccn3)CC2)cc1 system_tested="S. cerevisiae Mot1-301 ts growth rescue, BacTiter-Glo ATP luminescence" meas_value="> 42 µM (inactive)"
molecule=O=[N+]([O-])c1ccccc1CN1CC=C(c2ccc(F)cc2)CC1 system_tested="S. cerevisiae Mot1-301 ts growth rescue, BacTiter-Glo ATP luminescence" meas_value="> 42 µM (inactive)"
molecule="C[C@H](NC(=O)OC(C)(C)C)C(=O)NCC1CCC(C(=O)N[C@@H](Cc2ccccc2)C(=O)O)CC1 (some centres not stated)" system_tested="S. cerevisiae Mot1-301 ts growth rescue, BacTiter-Glo ATP luminescence" meas_value="> 42 µM (inactive)"
molecule=FC(F)(F)c1nnc(-c2ccccc2)nc1Oc1ccc(Cl)cc1Cl system_tested="S. cerevisiae Mot1-301 ts growth rescue, BacTiter-Glo ATP luminescence" meas_value="> 42 µM (inactive)"

Incoming: What value of AC50 has been recorded for this entry: COc1cc(C(C2=C(O)CC(C)(C)CC2=O)C2C(=O)CC(C)(C)CC2=O)cc(OC)c1OC (configuration not stated)
Outgoing: > 42 µM (inactive)

Incoming: What value of AC50 has been recorded for this entry: `Cc1cc(C)c(NC(=O)Cn2c([N+](=O)[O-])cnc2C)c(C)c1`
Outgoing: > 42 µM (inactive)

Incoming: What value of AC50 has been recorded for this entry: CC1(C)C2CC=C(/C=N/NC(=S)Nc3cccnc3)C1C2 (configuration not stated)
Outgoing: > 42 µM (inactive)

Incoming: What value of AC50 has been recorded for this entry: O=C(O)C1C2CCC(O2)C1C(=O)NCCC1=CCCCC1 (configuration not stated)
Outgoing: > 42 µM (inactive)
